// data source = patent US20250361230A1

- tested system: LATS2 (Homo sapiens, UniProt Q9NRM7)
- Sequence (Q9NRM7 1-1088): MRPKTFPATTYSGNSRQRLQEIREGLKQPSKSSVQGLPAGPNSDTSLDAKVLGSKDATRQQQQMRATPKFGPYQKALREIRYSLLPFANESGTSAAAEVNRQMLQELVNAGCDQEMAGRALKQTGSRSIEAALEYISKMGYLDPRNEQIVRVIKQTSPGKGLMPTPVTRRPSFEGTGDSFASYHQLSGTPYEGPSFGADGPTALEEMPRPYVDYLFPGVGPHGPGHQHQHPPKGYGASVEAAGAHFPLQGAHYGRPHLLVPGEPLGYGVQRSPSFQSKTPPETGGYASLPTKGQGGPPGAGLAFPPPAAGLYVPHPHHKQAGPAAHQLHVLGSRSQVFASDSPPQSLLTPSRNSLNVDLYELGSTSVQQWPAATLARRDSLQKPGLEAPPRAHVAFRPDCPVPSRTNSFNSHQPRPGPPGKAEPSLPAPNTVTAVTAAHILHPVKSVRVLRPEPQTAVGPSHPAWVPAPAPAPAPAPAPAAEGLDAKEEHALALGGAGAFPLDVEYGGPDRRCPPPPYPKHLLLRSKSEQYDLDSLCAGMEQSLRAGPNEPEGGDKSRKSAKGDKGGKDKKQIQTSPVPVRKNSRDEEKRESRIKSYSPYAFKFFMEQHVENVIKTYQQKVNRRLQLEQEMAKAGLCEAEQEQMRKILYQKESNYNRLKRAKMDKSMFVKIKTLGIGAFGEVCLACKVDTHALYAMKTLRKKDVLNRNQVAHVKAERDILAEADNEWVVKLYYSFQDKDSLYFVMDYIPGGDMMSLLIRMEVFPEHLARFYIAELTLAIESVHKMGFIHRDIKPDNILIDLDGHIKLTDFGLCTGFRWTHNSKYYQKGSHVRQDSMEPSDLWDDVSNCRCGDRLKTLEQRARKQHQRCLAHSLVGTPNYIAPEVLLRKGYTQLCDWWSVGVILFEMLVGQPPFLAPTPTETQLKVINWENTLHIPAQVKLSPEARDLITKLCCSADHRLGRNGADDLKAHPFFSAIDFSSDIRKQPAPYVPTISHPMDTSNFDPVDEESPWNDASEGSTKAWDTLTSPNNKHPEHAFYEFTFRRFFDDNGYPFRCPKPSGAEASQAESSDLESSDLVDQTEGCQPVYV
- measurement description: RBC HotSpot kinase assay (33P-ATP, P81 filter-binding), LATS2
- Assay type: biochemical
- particulars: Table 28, biochemical kinase assay; read-out: LATS2 IC50
pIC50: −log10 of the molar value.
property measured: pIC50

Some solved cases for reference:
c1cc(-c2ccc(CN3CCCC3)cc2)c2cc[nH]c2n1 = 7.00
CCc1cc(-c2ccnc3[nH]cc(F)c23)ccc1[C@@]1(O)[C@H](C)CNC[C@@H]1C = 8.31
C[C@@H]1CN(C(=O)C2CC(C(F)(F)F)C2)C[C@H](C)C1(O)c1c(F)cc(-c2ccnc3[nH]cc(F)c23)cc1F (some centres unmarked) = 7.91
OC1(c2ccc(-c3ccnc4[nH]ccc34)cc2)CCNCC1 = 7.66
NCc1ccc(-c2ccnc3[nH]cc(-c4cccc(C(F)(F)F)c4)c23)cc1 = 7.31

(P) COC(=O)c1c[nH]c2nccc(-c3ccc(C4(O)C[C@H]5CC[C@@H](C4)N5)cc3)c12 (some centres unmarked)
(Q) C[C@@H]1CN(C(=O)C2(N)CC2)C[C@H](C)C1(O)c1c(F)cc(-c2ccnc3[nH]cc(F)c23)cc1F (some centres unmarked)
// query Returns the identifier with the smallest measured pIC50 among P and Q . Write the label of whichever entry you select.
// result P

====

- tested system: UniProtKB P31749
- measurement description: RBC HotSpot kinase assay (33P-ATP, P81 filter-binding), AKT
- Type: biochemical
- particulars: Table 28, biochemical kinase assay; read-out: AKT IC50
pIC50: −log10 of the molar value.
property measured: pIC50

CC1CN(C)CC(C)C1(O)c1ccc(-c2ccnc3[nH]cc(Br)c23)cc1Cl (stereo not drawn) [Compound 125] = 6.97
OC1(c2ccc(-c3ccnc4[nH]cc(F)c34)cc2)CNC1 [Compound 116] = 6.33
COCCN1CCC(c2ccc(-c3ccnc4[nH]cc(F)c34)cc2Cl)CC1 [Compound 158] = 5.94
NCc1ccc(-c2c(Cl)cnc3[nH]ccc23)cc1 [Compound 272] = 5.51

(1) C[C@@H]1CN(C(=O)C(C)(C)N)C[C@H](C)C1(O)c1c(F)cc(-c2ccnc3[nH]cc(F)c23)cc1F (stereo partly drawn) [Compound 77]
(2) NCc1ccc(-c2ccnc3[nH]cc(-c4ccc(F)cc4)c23)cc1 [Compound 243]
(3) CC(C)c1cc(-c2ccnc3[nH]cc(Cl)c23)ccc1CN [Compound 232]
// query Order each entry by recorded pIC50, climbing from the minimum. Please reply with the labels ordered as requested. Many thanks.
// result 2, 1, 3

====

- tested system: UniProt:Q9NRM7
- measurement description: RBC HotSpot kinase assay (33P-ATP, P81 filter-binding), LATS2
- Assay type: biochemical
Catalogue of IC50 readings, one per entry.
Answer in nM, number only, no unit symbol.

COC(=O)C1(c2ccc(-c3ccnc4[nH]cc(F)c34)cc2)CCN(C)CC1 = 26

Let us move to another entry and its IC50.
// query # query: IC50 | item OC1(c2ccc(-c3ccnc4[nH]cc(Br)c34)nc2)C[C@H]2CC[C@@H](C1)N2 (some centres unmarked) | system: UniProt:Q9NRM7
// result 184

====

- tested system: AKT (Homo sapiens)
- measurement description: RBC HotSpot kinase assay (33P-ATP, P81 filter-binding), AKT
- Format: biochemical
- particulars: Table 28, biochemical kinase assay; read-out: AKT IC50
pIC50: −log10 of the molar value.
property measured: pIC50

Here is how some compounds turned out for pIC50.
Cc1cc(-c2ccnc3[nH]cc(F)c23)cc(F)c1C1(O)CC2(CN(C3COC3)C2)C1 = 6.16
NCc1ccc(-c2ccnc3[nH]cc(F)c23)cc1 = 6.58
C[C@@H]1CN(CC(N)=O)C[C@H](C)[C@@]1(O)c1c(F)cc(-c2ccnc3[nH]cc(F)c23)cc1F = 6.49

(A) Cc1cc(-c2ccnc3[nH]cc(F)c23)cc(F)c1[C@@]1(O)[C@H](C)CN(C(=O)[C@H](N)CO)C[C@@H]1C
(B) Cc1cc(-c2ccnc3[nH]cc(F)c23)cc(F)c1C1(O)[C@H](C)CN(C(=O)C2CC(F)(F)C2)C[C@@H]1C (stereo partly shown)
(C) NCc1ccc(-c2ccnc3[nH]ccc23)cc1C(F)(F)F
(D) COC(=O)c1c[nH]c2nccc(-c3ccc([C@@]4(O)[C@H](C)CNC[C@@H]4C)c(C)c3)c12
(E) CC(C)N1C[C@@H](C)[C@](O)(c2ccc(-c3ccnc4[nH]cc(F)c34)cc2Cl)[C@@H](C)C1
// query Please order the records by their reported pIC50, lowest number first. Put the labels in the requested order and list them out.
// result B, C, D, A, E
(B: 5.19, C: 5.94, D: 6.55, A: 6.82, E: 7.04)

====

- tested system: AKT (Homo sapiens, UniProt P31749)
- Sequence (P31749 whole entry): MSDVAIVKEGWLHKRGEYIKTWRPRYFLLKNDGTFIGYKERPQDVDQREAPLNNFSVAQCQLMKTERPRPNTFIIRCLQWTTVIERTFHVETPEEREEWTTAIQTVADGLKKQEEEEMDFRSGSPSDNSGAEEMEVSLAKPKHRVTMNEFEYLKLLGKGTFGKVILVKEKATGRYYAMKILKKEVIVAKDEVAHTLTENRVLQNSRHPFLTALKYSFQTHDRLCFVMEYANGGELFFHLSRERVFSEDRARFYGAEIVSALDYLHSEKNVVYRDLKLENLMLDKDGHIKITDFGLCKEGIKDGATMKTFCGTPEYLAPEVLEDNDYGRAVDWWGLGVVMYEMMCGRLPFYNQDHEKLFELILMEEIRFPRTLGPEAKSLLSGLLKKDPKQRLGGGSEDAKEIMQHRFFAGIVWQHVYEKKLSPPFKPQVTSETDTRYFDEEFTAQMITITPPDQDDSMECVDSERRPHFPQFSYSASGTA
- measurement description: RBC HotSpot kinase assay (33P-ATP, P81 filter-binding), AKT
- Format: biochemical
- particulars: Table 28, biochemical kinase assay; read-out: AKT IC50
property measured: IC50 (nM)

Worked examples follow.
Cc1cc(-c2ccnc3[nH]cc(F)c23)ccc1[C@@]1(O)[C@H](C)CN(C2CCS(=O)(=O)CC2)C[C@@H]1C [Compound 55] = 62.8
C=C(C)c1c[nH]c2nccc(-c3ccc(CN)c(-c4ccccc4)c3)c12 [Compound 224] = 1150

(P) NCc1ccc(-c2cc(-c3ccnc4[nH]ccc34)ccc2C2CCNCC2)cc1 [Compound 155]
(Q) OC1(c2ccc(-c3ccnc4[nH]cc(F)c34)cc2Cl)C2CNCC1C2 (stereo not drawn) [Compound 102]
// query // select label with min value of measured IC50 from [ P , Q ] Refer to your chosen entry by its label in the reply.
// result P
(P: 68 nM, Q: 4870 nM)

(1) C[C@@H]1CN(C)C[C@H](C)[C@@]1(O)c1ccc(-c2ccnc3[nH]cc(F)c23)cc1F [Compound 42]
(2) CC(C)(C)Nc1cc(-c2ccnc3[nH]cc(F)c23)ccc1C1CCNCC1 [Compound 156]
// query Between the two listed entries 1 and 2 , which has its IC50 at the higher number? # reply format: chosen label
// result 2

====

- tested system: UniProtKB Q9NRM7
- Sequence (Q9NRM7 1-1088): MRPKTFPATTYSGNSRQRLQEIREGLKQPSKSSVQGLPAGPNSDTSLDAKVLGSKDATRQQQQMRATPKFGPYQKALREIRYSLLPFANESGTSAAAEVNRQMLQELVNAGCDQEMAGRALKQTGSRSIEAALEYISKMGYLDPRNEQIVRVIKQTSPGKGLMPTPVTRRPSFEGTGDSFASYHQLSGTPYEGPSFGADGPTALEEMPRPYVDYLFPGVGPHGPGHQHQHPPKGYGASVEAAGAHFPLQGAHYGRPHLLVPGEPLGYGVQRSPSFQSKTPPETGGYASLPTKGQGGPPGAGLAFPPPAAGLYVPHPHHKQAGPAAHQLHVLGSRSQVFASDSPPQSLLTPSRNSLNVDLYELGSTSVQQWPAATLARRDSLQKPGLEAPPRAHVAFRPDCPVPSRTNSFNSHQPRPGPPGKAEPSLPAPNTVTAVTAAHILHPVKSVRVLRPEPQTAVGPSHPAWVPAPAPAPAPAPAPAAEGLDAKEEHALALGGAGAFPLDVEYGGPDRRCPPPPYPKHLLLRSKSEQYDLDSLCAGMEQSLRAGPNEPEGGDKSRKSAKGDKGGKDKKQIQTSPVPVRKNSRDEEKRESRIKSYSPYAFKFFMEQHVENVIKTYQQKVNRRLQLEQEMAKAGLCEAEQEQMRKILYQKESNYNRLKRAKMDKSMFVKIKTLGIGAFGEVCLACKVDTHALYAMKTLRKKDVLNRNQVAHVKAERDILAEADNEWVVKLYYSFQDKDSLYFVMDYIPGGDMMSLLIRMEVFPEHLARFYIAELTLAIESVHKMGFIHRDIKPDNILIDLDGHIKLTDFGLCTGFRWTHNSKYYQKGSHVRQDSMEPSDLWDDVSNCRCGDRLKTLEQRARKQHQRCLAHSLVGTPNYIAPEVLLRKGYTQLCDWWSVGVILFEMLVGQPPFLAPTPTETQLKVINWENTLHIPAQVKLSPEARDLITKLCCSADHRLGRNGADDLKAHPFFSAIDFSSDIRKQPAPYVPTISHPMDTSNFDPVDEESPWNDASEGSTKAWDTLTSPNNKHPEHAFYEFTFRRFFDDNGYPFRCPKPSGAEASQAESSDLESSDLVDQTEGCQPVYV
- measurement description: RBC HotSpot kinase assay (33P-ATP, P81 filter-binding), LATS2
- Type: biochemical
- particulars: Table 32, biochemical kinase assay; read-out: LATS2 IC50
pIC50: −log10 of the molar value.
property measured: pIC50

Example results:
CNCC(=O)NCC(O)(c1ccc(Cl)cc1)c1ccc(-c2ccnc3[nH]ccc23)cc1 (stereo not shown) = 8.52
NCC(O)(c1ccc(Cl)cc1)c1ccc(-c2ccnc3[nH]cc(F)c23)cc1 (stereo not shown) = 7.95
NCC(O)(c1ccc(Cl)cc1)c1ccc(-c2ccnc3[nH]cc(Cl)c23)cc1 (stereo not shown) = 7.92
COC(=O)c1c[nH]c2nccc(-c3ccc(C(O)(CN)c4ccc(Cl)cc4)cc3)c12 (stereo not shown) = 8.28
NCC(=O)NCC(=O)NCC(O)(c1ccc(Cl)cc1)c1ccc(-c2ccnc3[nH]ccc23)cc1 (stereo not shown) = 8.35

(I) CN(C)CC(=O)NCC(O)(c1ccc(Cl)cc1)c1ccc(-c2ccnc3[nH]ccc23)cc1 (stereo not shown)
(II) NCC(O)(c1ccc(Cl)cc1)c1ccc(-c2ccnc3[nH]cc(-c4ccccc4)c23)cc1 (stereo not shown)
// query From the items above, decide which of I and II has the lower pIC50 reading. // caller expects the label of the chosen entry
// result II
